Molecular target: T1, HiNmlR C54A (Haemophilus influenzae Rd KW20, UniProt P44558 1-135, C54A)
T1 sequence: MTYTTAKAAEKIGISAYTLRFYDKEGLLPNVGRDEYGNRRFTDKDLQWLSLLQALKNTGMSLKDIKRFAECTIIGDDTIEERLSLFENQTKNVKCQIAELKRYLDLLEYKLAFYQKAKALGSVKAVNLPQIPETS
Assay: MST
Outcome Measure: Kd (µM)

[
  {
    "Binder": "PadhC-estD/nmlR IR wt 24-bp (dsDNA) DNA 1: CACTTTAGAGTTCACTCTAAAGCA DNA 2: TGCTTTAGAGTGAACTCTAAAGTG",
    "Uom": "µM",
    "Number": 0.0911
  }
]
